For each of the sequences below, state its protein stability index.
Assay Method Text: protein stability index of a GFP-peptide fusion (GPS, HEK-293T) (PSI 1-6); higher = more stable;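 also: 24-mer peptide tiles fused after GFP, lentivirally expressed, FACS-sorted into six equal bins by GFP/DsRed ratio, decoded by Illumina sequencing, PSI is the read-weighted mean bin number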
Measurement Context: treatment: DMSO; c terminus: a fixed tail appended
Answers are plain numbers.

1. PEKLIWGDQDPLSKIPFKILSGHE [WDR88]; 3.43
2. HTLLNELERNPNGVADGVIKSVLW [CDKL4]; 2.58
3. TERDEIEDVKCQEDQKLQVLLTQI [TRIM15]; 4.34

Go through the list and state protein stability index for each entry.
1. SIVILDNSPGAYRSHPDNAIPIKS [CTDNEP1]
2. LEDFFVMSDYRGFGIGSEILKNLS [SAT1]
3. GFHKAGSMLPPVNFSIVPYEKKFD [SPATS1]
4. SLRQKQPERLCSGPGIVGNVLVDP [GMPPB]
5. IAEVCCTSIVYATEKKQTKVEFPE [KCTD10]
6. FVSAGAAAGVAAAFGAPIGGTLFS [CLCN6]

-- reply
1. 2.82
2. 2.38
3. 3.64
4. 3.65
5. 3.42
6. 2.8

----------
For each of the sequences below, state its protein stability index.
Assay Method Text: protein stability index of a GFP-peptide fusion (GPS, HEK-293T) (PSI 1-6); higher = more stable
Measurement Context: treatment: DMSO; c terminus: a fixed tail appended
Answers are plain numbers.

// solved cases for protein stability index follow
1. IMAFFLCLGLALGAVFSFLFRAIV [SLC29A1]; 1.94
2. SYRSFHSGGYGQDALGMDPMMEHE [CTNNB1]; 4.29
3. IWLDNLHCTGNEATLAACTSNGWG [LOXL2]; 2.18
4. YGALSSNLQPPASLQTGNHSNGPT [NOL4L]; 4.39
5. PGYPKMIAHDFPGIGHKVDAVFMK [MMP1]; 2.75
6. HRGPSGHTEASAQRSHMGKLKEPQ; 5.1

Go through the list and state protein stability index for each entry.
1. AAPFPSPAPASPAISVVGVSAGGH [TFE3]
2. ESFTMDDMSWTCGNQDYKYRVSDV [VDR]
3. GGTTGYIYSTDLHKLDLNTREWTQ [KLHDC10]
4. NDTAGPELPDPLGGLLDEAMLDEI [NFE2L1]
5. VKKYKSMKLEKEEFVTLKAIALAN [ESRRG]
6. TTQDLFAINRDTAFPGASHESSGN [RHOBTB3]
7. PSLQPSRKLSPTEPKNYGSYSTQA [SCAMP3]

-- reply
4.24
3.08
2.44
5.22
2.46
4.57
4.4

----------
Assay Method Text: protein stability index of a GFP-peptide fusion (GPS, HEK-293T) (PSI 1-6); higher = more stable
Measurement Context: treatment: DMSO; c terminus: a fixed tail appended
Assign class by protein stability index: not lower than 3 means true (1); lower than 3 means false (0).

1) AMEAVRVNPLHVDSTWLLLRRIRA [SLC25A39]; false (0)

-- ask Exam item: decide whether the reported protein stability index for VVCAFFKQGQCTKGDKCKFSHDLT [ZC3H15] is at least 3.
-- reply true (1)

-- ask What do you have for QLEQVIESQKANQCAVLIYTSGTT [ACSBG2] ?
-- reply false (0)

----------
For each of the sequences below, state its protein stability index.
Assay Method Text: protein stability index of a GFP-peptide fusion (GPS, HEK-293T) (PSI 1-6); higher = more stable
Measurement Context: treatment: MLN4924 1 uM, 8 h; c terminus: a fixed tail appended
Answers are plain numbers.

1) SIVILDNSPGAYRSHPDNAIPIKS [CTDNEP1]; 2.91
2) SSTTILVQWKEPEEPNGQIQGYRV [PTPRD]; 2.71
3) AQRVKEVLPHVPLGVIQRDLAKTG [AUP1]; 3.85
4) AGPGAPEPLAEGAAAEFSSLLRRI [SLC35F2]; 3.77
5) DVCISILHPPVDDPQSGELPSERW [CDC34]; 4.01
6) CKKAFREGSRKSSRVKGSAPEIDP [KMT2E]; 4.48
7) AVPTDEARAFAEKNNLSFIETSAL [RAB11B]; 3.47
8) TPAPMSSAWKTVACGGTRDQLFMQ [MYBL2]; 2.69
9) KRIKVPDYKDRSVFGVPLTVNVQR [DLC1]; 3.09
10) TEAESEQEGSSGMELSWGQSPGQP [TEX19]; 5.26

Go through the list and state protein stability index for each entry.
1. DMKPITVGGKIVGSLCAIAGVLTI [KCNA4]
2. SSSSSSSSSSSASSSASSSFSEEG [NFE2L1]

-- reply
1. 3.11
2. 5.38
